Quick reference for growth inhibition among some molecules
Assay: HT29 colon tumor cell growth inhibition, primary screen, imaging, high content imaging, 72 h, CellTiter-Glo (AID 772)
Conditions: HCS imaging cell count, measured here: ATP CellTiter-Glo viability, at 10 µM, stronger effect = higher value
Among all 3,300 compounds or so, about 20 (0.6%) were called active. The sample holds actives, similar compounds and a random draw of the others, so the mix is not that of the screen.
result_type: growth inhibition

- molecule: "Cc1nc2sccn2c(=O)c1CCN1CCC(=C(c2ccc(F)cc2)c2ccc(F)cc2)CC1"
  result: "84.8%"
- molecule: "CCN(CC)CCN1C(=O)C(O)=C(C(=O)c2ccco2)C1c1ccccn1 (stereo unspecified)"
  result: "-77%"
- molecule: "COc1ccc2[nH]c3c(N4CCN(Cc5ccc6c(c5)OCO6)CC4)ncnc3c2c1"
  result: "21%"
- molecule: "Cc1nc2ccccn2c(=O)c1CCN1CCC(C(=O)c2ccc(F)cc2)CC1"
  result: "86.5%"
- molecule: "CC1(c2ccco2)NC(=O)NC1=O (stereo unspecified)"
  result: "7.41%"
- molecule: "Fc1ccc2[nH]c3c(N4CCN(C5CCCCC5)CC4)ncnc3c2c1"
  result: "96.8%"
- molecule: "Cc1ccc2[nH]c3c(N4CCN(Cc5ccccc5)CC4)ncnc3c2c1"
  result: "7.07%"
- molecule: "CCOc1ccc(-c2nc(C#N)c(N3CCN(CC)CC3)o2)cc1"
  result: "-1.72%"
- molecule: "CN1CCN(c2ncnc3c2[nH]c2ccc(F)cc23)CC1"
  result: "14.8%"
- molecule: "Cc1nc2sccn2c(=O)c1CCN1CCC(=C(c2ccccc2)c2ccc(F)cc2)CC1"
  result: "6.78%"
- molecule: "O=C1CC(c2ccccc2)n2nc(NS(=O)(=O)c3ccccc3)nc2N1 (stereo unspecified)"
  result: "25.8%"
- molecule: "Cc1cc2c(c(=O)o1)C(CC(C)C)C(C#N)=C(N)O2 (stereo unspecified)"
  result: "-9.11%"
- molecule: "C=CCOC(=O)C1=C(C)NC(SCC(=O)Nc2ccc(C)c(Cl)c2)=C(C#N)C1c1ccco1 (stereo unspecified)"
  result: "81.8%"
- molecule: "CCN(CC)S(=O)(=O)c1cccc2c(N(C)C)cccc12"
  result: "-46.3%"
- molecule: "Cn1cc(Br)cc2nc(C(F)(F)F)nc1-2"
  result: "19.5%"
- molecule: "CCOc1ccc(C2C(C(=O)c3ccc(C)o3)=C(O)C(=O)N2CCN2CCOCC2)cc1OC (stereo unspecified)"
  result: "-33.6%"

###

Experiment: HT29 colon tumor cell growth inhibition, primary screen, imaging, high content imaging, 72 h, CellTiter-Glo (AID 772);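 as to condensed nuclei: condensed means nuclear area below control median minus 1.5 SD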
Details: HCS imaging cell count, measured here: percent cells with condensed nuclei, at 10 µM, stronger effect = higher value
The whole screen tested about 3,300 compounds, of which about 20 (0.6%) were called active. Only a selection was taken, and actives are over-represented in it overall.

- compound: "O=C(CCN1CCCCC1)Nc1cccc(Cl)c1"
  condensed nuclei [%]: 26.1
- compound: "c1ccc2c(c1)[nH]c1c(N3CCSCC3)ncnc12"
  condensed nuclei [%]: 5.16
- compound: "COc1cccc2c(=O)c(SC(F)(F)C(F)C(F)(F)F)c(C)[nH]c12 (stereo unspecified)"
  condensed nuclei [%]: 36.9
- compound: "COCCN(CCOC)C(=O)C12CCC(C)(C(=O)C1)C2(C)C (stereo unspecified)"
  condensed nuclei [%]: 10.7
- compound: "O=C(NCCC1=CCCCC1)c1ccc(=O)oc1"
  condensed nuclei [%]: 21.8
- compound: "Cc1ccc2[nH]c3c(N4CCN(Cc5ccccc5)CC4)ncnc3c2c1"
  condensed nuclei [%]: 2.3
- compound: "CCCCCCc1cc2cc(-c3nnc(-c4ccccc4O)o3)c(=O)oc2cc1O"
  condensed nuclei [%]: 4.18
- compound: "CCN(CC)c1ccc2cc(-c3nnc(-c4ccncc4)o3)c(=O)oc2c1"
  condensed nuclei [%]: 4.75
- compound: "Cc1ccc(C2/C(=C(/O)c3cnn(-c4ccccc4)c3C)C(=O)C(=O)N2CCN2CCOCC2)o1 (stereo unspecified)"
  condensed nuclei [%]: 5.65
- compound: "O=C1[C@@H]2[C@H](C(=O)N1n1cnnc1)[C@H]1C=C[C@@H]2C1"
  condensed nuclei [%]: 7.85
- compound: "Cc1cc(=O)oc(C)c1C(=O)NCC1CCCO1 (stereo unspecified)"
  condensed nuclei [%]: 7.86
- compound: "CCOC(=O)CSc1nc(NC#N)nc(N(CC)CC)n1"
  condensed nuclei [%]: 2.47
- compound: "CC1(C)CC(=O)C2=C(C1)OC(N)=C(C#N)C2C1C=CCCC1 (stereo unspecified)"
  condensed nuclei [%]: 3.5
- compound: "O=C(O)C(Cc1c[nH]c2ccccc12)NS(=O)(=O)c1cccc2nsnc12 (stereo unspecified)"
  condensed nuclei [%]: 1.59
- compound: "O=C(c1ccc2c3c(cccc13)C(=O)N(O)C2=O)N1CCCCC1"
  condensed nuclei [%]: 16.2
- compound: "COC(=O)NC(Nc1sc2c(c1C(N)=O)CCCC2)(C(=O)OC)C(F)(F)F (stereo unspecified)"
  condensed nuclei [%]: 3.2
- compound: "N#Cc1nc(COc2ccc(Br)cc2)oc1N1CCCC1"
  condensed nuclei [%]: 13.2
- compound: "N#C/C(=N\\O)c1nc(-c2ccccc2)cs1"
  condensed nuclei [%]: 3.16
- compound: "CN1CCN(c2ncnc3c2[nH]c2ccc(F)cc23)CC1"
  condensed nuclei [%]: 6.32
- compound: "Cc1cc(=O)[nH]c(SCC(=O)c2ccccc2)c1C#N"
  condensed nuclei [%]: 2.93
- compound: "CCOC(=O)c1[nH]c2ccc(C)cc2c1N=CN(CC)CC"
  condensed nuclei [%]: 12.3
- compound: "COC(=O)CC1SC(=O)NC1=O (stereo unspecified)"
  condensed nuclei [%]: 4.51
- compound: "N/C(CCN1CCCCC1)=N/O"
  condensed nuclei [%]: 6.52
- compound: "COc1cc2c(C(=O)N3CCN(c4ccccc4)CC3)c(C)oc2cc1Br"
  condensed nuclei [%]: 5.92
- compound: "Cc1cc(=O)oc(C)c1C(=O)NCCC1=CCCCC1"
  condensed nuclei [%]: 17.3
- compound: "CCN(CC)c1ccc2cc(C(=O)Nc3ccccn3)c(=O)oc2c1"
  condensed nuclei [%]: 5.56
